TESTED_TARGET: CDK4 CCND1 (human) (UniProt P24385+P11802)
Sequence (P11802 whole entry, looked up): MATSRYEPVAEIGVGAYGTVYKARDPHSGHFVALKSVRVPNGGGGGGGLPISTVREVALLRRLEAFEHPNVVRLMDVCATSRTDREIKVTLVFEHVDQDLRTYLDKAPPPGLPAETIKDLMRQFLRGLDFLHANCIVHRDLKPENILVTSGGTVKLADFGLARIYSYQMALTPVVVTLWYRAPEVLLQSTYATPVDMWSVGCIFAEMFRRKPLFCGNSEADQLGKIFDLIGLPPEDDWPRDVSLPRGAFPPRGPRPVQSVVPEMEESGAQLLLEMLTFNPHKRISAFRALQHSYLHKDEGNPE
Sequence (P24385 whole entry, looked up): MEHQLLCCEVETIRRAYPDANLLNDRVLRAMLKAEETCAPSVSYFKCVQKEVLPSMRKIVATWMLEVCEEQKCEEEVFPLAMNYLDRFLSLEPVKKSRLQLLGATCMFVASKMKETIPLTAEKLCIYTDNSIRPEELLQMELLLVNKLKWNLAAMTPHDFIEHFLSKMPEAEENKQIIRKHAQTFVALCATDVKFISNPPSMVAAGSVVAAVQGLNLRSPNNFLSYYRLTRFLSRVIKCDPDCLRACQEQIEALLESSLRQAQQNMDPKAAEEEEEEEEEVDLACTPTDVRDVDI
TEST_DETAILS: radiometric filter-binding kinase assay, Kinase HotSpot
CONDITION_DESCRIPTION: compound 0.5 µM; ATP 10 µM
Parameter: residual activity. Scope: all listed entries.

[
  {
    "SMILES_STRUCTURE": "Cc1nc(-c2ccccc2)c(-c2ccncc2)o1",
    "residual activity, %": 114
  },
  {
    "SMILES_STRUCTURE": "CN(C)c1ccc(/C=C2\\C(=O)Nc3ccccc32)cc1",
    "residual activity, %": 97.7
  },
  {
    "SMILES_STRUCTURE": "CN(C)CCCn1cc(C2=C(c3c[nH]c4ccccc34)C(=O)NC2=O)c2ccccc21",
    "residual activity, %": 60.7
  },
  {
    "SMILES_STRUCTURE": "Ic1cccc(CSc2nnc(-c3ccncc3)o2)c1",
    "residual activity, %": 96.3
  },
  {
    "SMILES_STRUCTURE": "O=C1c2ccccc2-c2n[nH]c3cccc1c23",
    "residual activity, %": 96.3
  },
  {
    "SMILES_STRUCTURE": "Cn1c2ccccc2c2c3c(c4c5ccccc5n(CCC#N)c4c21)CNC3=O",
    "residual activity, %": 27.5
  }
]

---

TESTED_TARGET: CSNK1G1 (human)
TEST_DETAILS: radiometric filter-binding kinase assay, Kinase HotSpot
CONDITION_DESCRIPTION: compound 0.5 µM; ATP 10 µM

[
  {
    "SMILES_STRUCTURE": "c1ccc2c(-c3ccncc3)c[nH]c2c1",
    "TESTED_TARGET": "CSNK1G1 (human)",
    "residual activity / %": 79.2
  },
  {
    "SMILES_STRUCTURE": "COc1cc(Nc2c(C#N)cnc3cc(OCCCN4CCN(C)CC4)c(OC)cc23)c(Cl)cc1Cl",
    "TESTED_TARGET": "CSNK1G1 (human)",
    "residual activity / %": 95.7
  },
  {
    "SMILES_STRUCTURE": "O=C1c2ccccc2-c2nc3nnnn3nc21",
    "TESTED_TARGET": "CSNK1G1 (human)",
    "residual activity / %": 85.2
  },
  {
    "SMILES_STRUCTURE": "Cn1c2ccccc2c2c3c(c4c5ccccc5n(CCC#N)c4c21)CNC3=O",
    "TESTED_TARGET": "CSNK1G1 (human)",
    "residual activity / %": 93.3
  },
  {
    "SMILES_STRUCTURE": "NC(=O)c1cccc(-c2cc(Nc3ccc(OC(F)(F)F)cc3)ncn2)c1",
    "TESTED_TARGET": "CSNK1G1 (human)",
    "residual activity / %": 97.8
  },
  {
    "SMILES_STRUCTURE": "CC(C)(C)c1cc(C=C(C#N)C#N)cc(Br)c1O",
    "TESTED_TARGET": "CSNK1G1 (human)",
    "residual activity / %": 106
  },
  {
    "SMILES_STRUCTURE": "COc1ccc2c(c1)c(C1=C(c3c[nH]c4ccccc34)C(=O)NC1=O)cn2CCCN(C)C",
    "TESTED_TARGET": "CSNK1G1 (human)",
    "residual activity / %": 84.1
  },
  {
    "SMILES_STRUCTURE": "Cc1cccc(-c2nc(C(C)(C)C)[nH]c2-c2ccc3c(c2)OCO3)n1",
    "TESTED_TARGET": "CSNK1G1 (human)",
    "residual activity / %": 79.4
  },
  {
    "SMILES_STRUCTURE": "COc1ccc(Cl)cc1NC(=O)Nc1cc(C)nc2ccccc12",
    "TESTED_TARGET": "CSNK1G1 (human)",
    "residual activity / %": 97.9
  },
  {
    "SMILES_STRUCTURE": "COc1ccc(C(=O)Nc2sc3c(c2C(N)=O)CCCC3)cc1OC",
    "TESTED_TARGET": "CSNK1G1 (human)",
    "residual activity / %": 90.1
  },
  {
    "SMILES_STRUCTURE": "O=C1C(Cl)=C(N2C(=O)CCC2=O)C(=O)c2ccccc21",
    "TESTED_TARGET": "CSNK1G1 (human)",
    "residual activity / %": 147
  }
]
